molecular target: Ba/F3 EGFR WT (Homo sapiens); assay: Cell proliferation experiment (CellTiter Glo, 72 hours); assay type: cell-based; conditions: read-out: BaF3 EGFR WT IC50
Sequence (P00533 whole entry, change not shown): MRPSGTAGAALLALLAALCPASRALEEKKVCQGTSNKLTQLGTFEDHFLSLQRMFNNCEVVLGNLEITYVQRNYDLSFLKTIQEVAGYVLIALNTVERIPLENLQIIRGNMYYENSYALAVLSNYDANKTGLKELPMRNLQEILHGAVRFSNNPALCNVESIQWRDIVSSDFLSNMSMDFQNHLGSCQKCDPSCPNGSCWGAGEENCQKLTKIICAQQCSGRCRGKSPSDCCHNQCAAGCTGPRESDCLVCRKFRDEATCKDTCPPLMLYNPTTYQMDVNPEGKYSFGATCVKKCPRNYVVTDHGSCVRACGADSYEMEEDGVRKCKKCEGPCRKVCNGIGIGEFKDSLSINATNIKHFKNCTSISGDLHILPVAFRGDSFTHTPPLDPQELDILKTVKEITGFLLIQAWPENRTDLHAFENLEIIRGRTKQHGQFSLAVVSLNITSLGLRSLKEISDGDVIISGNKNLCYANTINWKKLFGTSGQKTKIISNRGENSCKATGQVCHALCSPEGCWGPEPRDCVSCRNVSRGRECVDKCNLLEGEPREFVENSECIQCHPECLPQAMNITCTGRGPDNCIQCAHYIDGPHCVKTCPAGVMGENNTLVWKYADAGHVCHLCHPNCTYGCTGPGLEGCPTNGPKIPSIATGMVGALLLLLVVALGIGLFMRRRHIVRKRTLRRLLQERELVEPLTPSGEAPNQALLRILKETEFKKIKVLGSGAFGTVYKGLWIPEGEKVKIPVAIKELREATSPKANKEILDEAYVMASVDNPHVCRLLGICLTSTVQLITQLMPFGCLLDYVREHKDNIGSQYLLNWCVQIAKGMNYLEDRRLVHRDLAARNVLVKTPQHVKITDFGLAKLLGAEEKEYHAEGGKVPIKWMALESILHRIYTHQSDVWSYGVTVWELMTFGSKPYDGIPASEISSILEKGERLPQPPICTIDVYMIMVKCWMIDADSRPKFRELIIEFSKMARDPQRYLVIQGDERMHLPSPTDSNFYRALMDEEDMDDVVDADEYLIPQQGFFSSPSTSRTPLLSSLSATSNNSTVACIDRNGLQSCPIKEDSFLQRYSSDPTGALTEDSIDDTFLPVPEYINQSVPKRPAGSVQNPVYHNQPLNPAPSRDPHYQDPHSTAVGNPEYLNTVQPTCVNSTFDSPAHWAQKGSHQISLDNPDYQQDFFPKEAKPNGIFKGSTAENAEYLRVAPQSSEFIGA
ENDPOINT_NAME: GI50 (nM)

Consider the following illustrative entries.
>  <COMPOUND>
COc1cc(N2CCN(C3CCCC3)CC2)c(-c2cnn(C)c2)cc1Nc1ncc(Br)c(Nc2ccc3nc(C4CC4)ccc3c2P(C)(C)=O)n1 [Compound J-055]

>  <GI50 / nM>
79

$$$$
>  <COMPOUND>
CCc1cc(Nc2ncc(Br)c(Nc3ccc4nc(C#N)ccc4c3P(C)(C)=O)n2)c(OC)cc1N1CCC(N2CCN(C)CC2)CC1 [Compound J-016]

>  <GI50 / nM>
132

$$$$
>  <COMPOUND>
COc1cc(N2CCN(c3ccncc3)CC2)c(-c2cnn(C)c2)cc1Nc1ncc(Br)c(Nc2ccc3nc(C4CC4)ccc3c2P(C)(C)=O)n1 [Compound J-057]

>  <GI50 / nM>
54

$$$$
>  <COMPOUND>
COc1cc(N2CCN(C3CCN(C)CC3)CC2)c(-c2cnn(C)c2)cc1Nc1ncc(Br)c(Nc2ccc3nc(C4CC4)ccc3c2P(C)(C)=O)n1 [Compound J-066]

>  <GI50 / nM>
77.9

$$$$
>  <COMPOUND>
COc1cncc(N2CCN(c3cc(OC)c(Nc4ncc(Br)c(Nc5ccc6nc(C7CC7)ccc6c5P(C)(C)=O)n4)cc3-c3cnn(C)c3)CC2)n1 [Compound J-049]

>  <GI50 / nM>
109

$$$$
>  <COMPOUND>
COc1ncc(N2CCN(c3cc(OC)c(Nc4ncc(Br)c(Nc5ccc6nc(C7CC7)ccc6c5P(C)(C)=O)n4)cc3-c3cnn(C)c3)CC2)cn1 [Compound J-044]

>  <GI50 / nM>
25.2

$$$$

(A) COc1cc(N2CCC(N3CCN(C)CC3)CC2)c(-c2cnn(C)n2)cc1Nc1ncc(Br)c(Nc2ccc3nc(C4CC4)ccc3c2P(C)(C)=O)n1 [Compound J-046]
(B) COc1cc(N2CCC(N3CCN(C)CC3)CC2)c(C#N)cc1Nc1ncc(Br)c(Nc2ccc3nc(C4CC4)ccc3c2P(C)(C)=O)n1 [Compound J-021]
Smaller GI50 value, A vs B ? Returns: label corresponding to the selected item. A

====

target: Ba/F3 EGFR WT (Homo sapiens); test: Cell proliferation experiment (CellTiter Glo, 72 hours); format: cell-based; conditions: read-out: BaF3 EGFR WT IC50
ENDPOINT_NAME: GI50 (nM)

Use the examples below as a reference point.
>  <COMPOUND>
COc1cc(Nc2ncc(Br)c(Nc3ccc4nc(C5CC5)ccc4c3P(C)(C)=O)n2)cc(C)c1N1CCC(N2CCN(C)CC2)CC1

>  <GI50 [nM]>
98.5

$$$$
>  <COMPOUND>
C#Cc1ccc2c(P(C)(C)=O)c(Nc3nc(Nc4cc(OC)c(N5CCC(N6CCN(C)CC6)CC5)cc4C)ncc3Br)ccc2n1

>  <GI50 [nM]>
388

$$$$
>  <COMPOUND>
CCc1cc(Nc2ncc(Br)c(Nc3ccc4nc(C5CC5)ccc4c3P(C)(C)=O)n2)c(OC)cc1N1CCC(N2CCN(C)CC2)CC1

>  <GI50 [nM]>
160

$$$$
>  <COMPOUND>
COc1cc(Nc2ncc(Br)c(Nc3ccc4nc(C5CC5)ccc4c3P(C)(C)=O)n2)c(C)cc1N1CCN(C2CCCC2)CC1

>  <GI50 [nM]>
256

$$$$
>  <COMPOUND>
CCc1ccc2c(P(C)(C)=O)c(Nc3nc(Nc4cc(C)c(N5CCC(N6CCN(C)CC6)CC5)cc4OC)ncc3Br)ccc2n1

>  <GI50 [nM]>
155

$$$$
>  <COMPOUND>
COc1cc(NCC2CCOCC2)c(-c2cnn(C)c2)cc1Nc1ncc(Br)c(Nc2ccc3nc(C4CC4)ccc3c2P(C)(C)=O)n1

>  <GI50 [nM]>
54

$$$$
>  <COMPOUND>
CCc1cc(Nc2ncc(Br)c(Nc3ccc4nccnc4c3P(C)(C)=O)n2)c(OC)cc1N1CCC(N2CCN(C)CC2)CC1 [Comparable example 1, reference compound]

>  <GI50 [nM]>
39.9

$$$$
>  <COMPOUND>
COc1cc(N2CCC(N3CCN(C)CC3)CC2)c(-c2cnn(C)c2)cc1Nc1ncc(Br)c(Nc2ccc3nc(C4CC4)ccc3c2P(C)(C)=O)n1

>  <GI50 [nM]>
33.2

$$$$
>  <COMPOUND>
COc1cc(Nc2ncc(Br)c(Nc3ccc4nc(-c5cnn(C)c5)ccc4c3P(C)(C)=O)n2)c(C)cc1N1CCOCC1

>  <GI50 [nM]>
147

$$$$

(a) CCc1cc(Nc2ncc(Br)c(Nc3ccc4nc(C5CC5)ccc4c3P(C)(C)=O)n2)c(C)cc1N1CCC(N2CCN(C)CC2)CC1
(b) COc1cc(Nc2ncc(Br)c(Nc3ccc4nc(C5CC5)ccc4c3P(C)(C)=O)n2)c(C)cc1N1CCOCC1
Which value of GI50 is greater, the one for a or the one for b ? Give the label under which the chosen entry appears. b

====

molecular target: Ba/F3-Δ19del/T790M/C797S (Homo sapiens, UniProt P00533, T790M/C797S, cells depend on it, form not given); experiment: Cell proliferation experiment (CellTiter Glo, 72 hours); type: cell-based; conditions: read-out: Ba/F3/EGFR Δ19del/T790M/C797S IC50
Sequence (P00533 with tags, fused parts or gaps DEL746-750/T790M/C797S, form open): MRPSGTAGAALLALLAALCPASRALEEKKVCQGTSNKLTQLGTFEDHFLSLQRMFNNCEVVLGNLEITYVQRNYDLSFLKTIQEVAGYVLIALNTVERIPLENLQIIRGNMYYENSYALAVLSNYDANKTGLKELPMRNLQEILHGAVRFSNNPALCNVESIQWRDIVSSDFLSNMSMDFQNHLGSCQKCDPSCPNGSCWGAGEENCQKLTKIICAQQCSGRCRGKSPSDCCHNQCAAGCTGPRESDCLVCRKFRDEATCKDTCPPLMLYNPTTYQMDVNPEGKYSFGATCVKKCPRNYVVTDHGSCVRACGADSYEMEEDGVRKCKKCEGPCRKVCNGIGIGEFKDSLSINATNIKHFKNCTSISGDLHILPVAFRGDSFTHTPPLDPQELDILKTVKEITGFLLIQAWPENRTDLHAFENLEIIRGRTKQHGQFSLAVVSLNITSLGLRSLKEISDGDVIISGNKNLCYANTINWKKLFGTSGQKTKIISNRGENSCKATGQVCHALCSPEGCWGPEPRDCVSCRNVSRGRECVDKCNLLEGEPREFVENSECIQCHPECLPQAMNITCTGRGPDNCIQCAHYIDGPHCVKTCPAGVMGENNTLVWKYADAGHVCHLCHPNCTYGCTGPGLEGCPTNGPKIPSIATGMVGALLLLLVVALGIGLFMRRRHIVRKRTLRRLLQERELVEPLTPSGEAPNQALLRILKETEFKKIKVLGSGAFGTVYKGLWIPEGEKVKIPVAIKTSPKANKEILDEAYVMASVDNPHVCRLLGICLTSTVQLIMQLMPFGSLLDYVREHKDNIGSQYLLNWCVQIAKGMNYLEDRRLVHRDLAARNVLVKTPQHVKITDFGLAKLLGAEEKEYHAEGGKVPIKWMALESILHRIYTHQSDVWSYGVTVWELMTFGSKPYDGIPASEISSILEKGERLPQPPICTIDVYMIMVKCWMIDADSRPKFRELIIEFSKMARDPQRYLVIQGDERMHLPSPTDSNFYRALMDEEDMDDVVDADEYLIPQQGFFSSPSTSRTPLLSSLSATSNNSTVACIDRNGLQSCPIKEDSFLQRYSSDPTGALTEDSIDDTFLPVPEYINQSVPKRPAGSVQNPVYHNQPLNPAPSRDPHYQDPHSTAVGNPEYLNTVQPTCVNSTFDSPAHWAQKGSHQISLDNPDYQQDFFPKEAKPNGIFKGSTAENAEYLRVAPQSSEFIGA
ENDPOINT_NAME: GI50 (µM)

(P) COc1cc(N2CCN(c3cc(OC)c(Nc4ncc(Br)c(Nc5ccc6nc(C7CC7)ccc6c5P(C)(C)=O)n4)cc3-c3cnn(C)c3)CC2)ccn1
(Q) CCc1ccc2c(P(C)(C)=O)c(Nc3nc(Nc4cc(C)c(N5CCC(N6CCN(C)CC6)CC5)cc4OC)ncc3Br)ccc2n1
(R) COc1cc(N2CCC(N3CCN(C)CC3)CC2)c(-c2cnn(C)c2)cc1Nc1ncc(Br)c(Nc2ccc3nc(C4CC4)ccc3c2P(C)(C)=O)n1
Arrange these 3 compounds in increasing order of GI50. Please list the labels according to the requested order. R, P, Q
(R: 0.001 µM, P: 0.0109 µM, Q: 0.0208 µM)

These entries and their values trace back to patent US20230131025A1.
